SPR normalised on Mw at 500 uM for assorted binders
# MEASURED_ON: Recombinant Cx43CT (carboxyl terminal domain of connexin43, sequence 255-382 of rCx43 preceded by GPLG) (rat, UniProt P08050)
# Sequence (P08050 other isoform, or with tags, fused parts or gaps limits assumed): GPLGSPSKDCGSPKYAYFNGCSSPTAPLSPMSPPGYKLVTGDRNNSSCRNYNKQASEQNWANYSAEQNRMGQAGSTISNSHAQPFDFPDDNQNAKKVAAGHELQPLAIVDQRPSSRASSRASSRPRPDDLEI
# PROTOCOL_NOTES: SPR, Cx43CT immobilised, peptide at 500 uM, response normalised on Mw
# Experimental: Biophys. […] Commun. 8(4-6):225-229 (2001); Lang et al., “Surface Plasmon Resonance as a Method to Study the Kinetics and Amplitude of Protein-protein Binding,” in PRACTICAL METHODS IN CARDIOVASCULAR […] […] Specific peptides were presented and, when feasible, dissociation constants (KD) were calculated from the time course of binding and unbinding of the ligand, using a 1:1 (Langmuir) association and dissociation kinetic model (Biacore software package). […]

See these solved cases before continuing.
| BINDER | VALUE_REPORTED |
| --- | --- |
| Ac-RRNYSHSRRNY-NH2 [Compound 2507] | 28.3 (SPRrespons*100)/Mw |
| Ac-RRNY-NH2 [Compound 2498] | 7.9 (SPRrespons*100)/Mw |
| Ac-RRNYGGGRRNY-NH2 [Compound 2509] | 19.9 (SPRrespons*100)/Mw |

[ask] Can you share its SPR normalised on Mw at 500 uM? I mean this binder: Ac-RRNYRRNY-NH2 [Compound 2497]
[reply] 26.5 (SPRrespons*100)/Mw

[ask] Try Ac-RRNYGGGSAVPFYRRNY-NH2 [Compound 2508] next.
[reply] 26.4 (SPRrespons*100)/Mw

[ask] Entry Ac-RRNYSAVPFYSHSRRNY-NH2 [Compound 2506] please
[reply] 25.4 (SPRrespons*100)/Mw

[ask] Follow-up entry: Ac-RRNYVPRRNY-NH2 [Compound 2512]
[reply] 15.9 (SPRrespons*100)/Mw
